target-desc: KRAS G12D (Homo sapiens (Human), UniProt P01116, G12D)
Sequence (P01116 other isoform, or with tags, fused parts or gaps G12D (already in the parent)): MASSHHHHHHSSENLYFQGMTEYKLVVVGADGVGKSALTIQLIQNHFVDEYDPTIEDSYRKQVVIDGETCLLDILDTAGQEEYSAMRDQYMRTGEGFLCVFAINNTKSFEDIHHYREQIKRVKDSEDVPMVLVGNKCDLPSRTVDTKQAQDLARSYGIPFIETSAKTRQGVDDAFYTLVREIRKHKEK
test-description: Inhibitory activity on KRAS G12D nucleotide (GDP-GTP) exchange reaction in vitro (SOS1-dependent, BODIPY FL GDP)
test-conditions: BODIPY FL GDP-bound KRAS G12D, compound 25° C. 1 hour, then SOS1 and GMPPNP 30 minutes
quantity: pIC50
FYI, pIC50 means -log10 of a concentration in mol per litre.

Observe how each entry below is paired with its result.
O=C(c1cc(O)cc2cccc(I)c12)N1Cc2nc(OCC3(CN4CCOCC4)CC3)nc(N3CC4CCC(C3)N4)c2C1: 8.26
CN(C)CC1(COc2nc(N3CC4CCC(C3)N4)c3cc(Cl)c(-c4cc(O)cc5ccccc45)c(F)c3n2)CC1: 8.05
C#Cc1cccc2cc(O)cc(C(=O)N3Cc4nc(OCC5(CN6CC[C@@H](F)C6)CC5)nc(N5CC6CCC(C5)N6)c4C3)c12: 8.85
Cc1cccc2cc(O)cc(N3CCc4c(nc(OCC5(CN6CC[C@@H](F)C6)CC5)nc4N4CC5CCC(C4)N5)C3)c12: 8.21

QUERY: Request body: readout pIC50, system KRAS G12D (Homo sapiens (Human), UniProt P01116, G12D), query CN1CCC[C@@H]1COc1nc2c(c(N3CC4CCC(C3)N4)n1)CCN(c1cc(O)cc3cccc(Br)c13)C2 . Return the value.
RESULT: 7.70

QUERY: Identify the measured pIC50 of O=C(c1cc(O)cc2cccc(I)c12)N1Cc2nc(OCC3(CN4CC[C@@H](F)C4)CC3)nc(N3CC4CCC(C3)N4)c2C1 for KRAS G12D (Homo sapiens (Human), UniProt P01116, G12D).
RESULT: 8.36

QUERY: Test system KRAS G12D (Homo sapiens (Human), UniProt P01116, G12D); read-out pIC50; what value for Oc1cc(N2CCc3c(nc(OCC4(CN5CCOCC5)CC4)nc3N3C[C@@H]4CC[C@H]3CN4)C2)c2c(Br)cccc2c1 ?
RESULT: 8.44
